Assay: soluble fraction after stress (log2 fold change); higher = more stays soluble; pooled small domains, quantitative proteomics
Settings: stress: pH 4
readout type: soluble fraction (log2)
Please respond with just the number, no unit label.

HMGVTDSSYNVLRRQILEMLSVQQRTPADLARLIEADKEEIAAVIRFLLDKGEIQMEDGMLQTK | -0.151
HMPAPAPDIPYHSRVSVRRADGFYEGTWTNTAPILDYTGRWMVNVSLGGKRVFVPVEEVVVH | -0.384
HMRHTRQRQAVLDALVRSGQALSPQDLLGQAKSAVPSLNLSTVYRQIKGLQDAGQIVRVELPGQPPRFEM | -0.0347
HMEVLEGFIEDIKFKSEESGYTVAKLNNRNKSIVIVGTMPFISEGQHVKLTGEWKIHQKFGAQFNVKELEE | -1.37

Problem: GET /values?readout=soluble fraction (log2)&item= HMNTEKRVFAGVENTRLDHFLVEQFPEFSRTFIQQMIKSANVIVNGNIEKASYKLREGDTIMTRPM
Solution: -0.0899

Problem: Entry under review: HMATSNDTQITGSLALRFDGSGDTFTVNVNGDDKLEINTEGTVIYKPLTTAPTYVSGGLFFSSSGDFYVG . Reported soluble fraction (log2)?
Solution: -0.163

Problem: What does the data say about its soluble fraction (log2)? Entry: HMDHAHWEEHEVKLLLTLAIQEKEKFNWNQFGLTREGWRNIYPHFPQYSRKQINNKFDFLKQKYRAWKDS
Solution: -1.09

Problem: What does the record list as soluble fraction (log2) for HMDTRQFWEQWVADEIRTFEHKDRKQLFGWFEGNKPKLGQMKKLGYGDLLTKVQTSWDEIYQQKE ?
Solution: 0.29

Problem: Name the reported soluble fraction (log2) value associated with the sequence HMDYNMEEWSLTADQLKSGDTILILNLGKTATLLESTRGKKNVRVRMGNIKTIVETSSIRGNPHQ
Solution: -0.729

----------
Recorded soluble fraction (log2) values for a group of sequences are listed next.
Assay: soluble fraction after stress (log2 fold change); higher = more stays soluble; pooled small domains, quantitative proteomics
Details: stress: pH 4

Look over these answered cases.
HMINKDNLIEEILKFINTKIADISSNNPLFDIVAKPYISKVVTNNVSKLDKALSLIADDKGMVDADGLLT | -0.295
HMEAGTVTVTHAAVYIRSGPGVSYPIAGKAAKNDTYTVLQKDGDWFQIRLPQGNTGWIAGWLVETGT | -0.133

Problem: I'd like to know its soluble fraction (log2). The sequence in question is HMIQVNKTQALIIEEMRDNPNITLLELQKTLSLGRTAIQNNVSSLRKRQIIKRVGSNKNGYWEVTDK
Solution: 0.22

Problem: Entry HMDDGARQLVDQLNRLIANPAVSARIIHGYLILEGRVESEWEKTRTLLLAQVAGLPVIDLITVS has what soluble fraction (log2)?
Solution: -2.12

----------
Assay: soluble fraction after stress (log2 fold change); higher = more stays soluble; pooled small domains, quantitative proteomics
Conditions: stress: pH 4
Each entry falls in a class defined on soluble fraction (log2); the bands are bin A: < -0.2; bin B: ≥ -0.2 and < 0.1; bin C: ≥ 0.1

HMSASAIYVRPKDVKEPEEVADYLSGVLELDREKLYKKITDKSQWIALIERKVDNDIAFDIRNKKFKGIEI | bin A
HMNKKEIISVLEKIIPPSQIKNINIFGSELVIDLNIDNPSLHAKKKLEKSIMSSFDENLKIIVNFSVE | bin C
HMKFSVEEQFKKSFPKNTYETFSETSLKGVYEVYNGKQVYYYLPVNDVLLLGSIVTKDGKNLTQESNSKK | bin B
HMDQHERQQLLIHIAGGEREALAELYQRTRSAVYGLALSYLKNAHDAQDLTRDVYVQVWDRA | bin B
HMPELSPEERAIIETLQKNNDLQVNIIAIKTGMDMGSLSAVLFDLEMKGLVKLLAGGMYHLI | bin B

Problem: # bin label for HMVSLEEIINDLTSRIQTAVKMRFSDFVQNRKERVGVIVSFLGMLELVKQGIIDIKQEGHFADIEMETA
Solution: bin A

Values were extracted from the domain aggregation screens of Martell et al. (2025).
